These measurements were taken from patent US12091411B2.

Listed here: items and their measured DC50.
biological target: IRAK4 (Homo sapiens); construct: Degradation of IRAK4 in OCI-LY10 was quantitatively measured using Meso Scale Discovery technology; endogenous in cells; host or cells: OCI-LY10; experiment: IRAK4 MSD Degradation in OCI-LY10; assay type: cell-based; conditions: OCI-LY10 cells, 24 hrs incubation, MSD; read-out: IRAK4 degradation in OCI-LY10 at 24 hrs: DC50
Sequence (Q9NWZ3 whole entry): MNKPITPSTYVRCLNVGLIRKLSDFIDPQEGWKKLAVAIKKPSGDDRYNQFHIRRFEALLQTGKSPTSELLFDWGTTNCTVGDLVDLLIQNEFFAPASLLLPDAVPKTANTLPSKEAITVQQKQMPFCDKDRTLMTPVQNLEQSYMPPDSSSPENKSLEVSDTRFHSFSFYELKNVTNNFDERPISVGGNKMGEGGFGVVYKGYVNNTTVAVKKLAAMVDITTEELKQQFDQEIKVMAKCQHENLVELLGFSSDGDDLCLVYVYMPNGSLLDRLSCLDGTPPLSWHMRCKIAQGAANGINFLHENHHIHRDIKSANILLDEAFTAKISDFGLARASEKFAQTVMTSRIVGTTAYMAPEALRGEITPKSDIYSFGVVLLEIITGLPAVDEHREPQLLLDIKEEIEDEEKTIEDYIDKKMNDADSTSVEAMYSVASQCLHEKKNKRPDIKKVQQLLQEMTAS
PARAMETER: DC50

# COMPOUND, ASSAY_RESULT
measured = [
    ("Cn1c(=O)n(C2CCC(=O)NC2=O)c2cccc(C#CCO[C@H]3CCCN(C[C@H]4CC[C@H](n5cc(NC(=O)c6cnn7ccc(N8C[C@H]9C[C@@H]8CO9)nc67)c(C(F)F)n5)CC4)C3)c21 (some centres unmarked) [I-128]", "> 200 nM"),
    ("Cn1c(=O)n(C2CCC(=O)NC2=O)c2cccc([C@H]3C[C@H](CO[C@H]4CCN(C[C@H]5CC[C@H](n6cc(NC(=O)c7cnn8ccc(N9C[C@H]%10C[C@@H]9CO%10)nc78)c(C(F)F)n6)CC5)C[C@@H]4F)C3)c21 (some centres unmarked) [I-718]", "< 10 nM"),
]
